- Test system: HCT-116 colon
- testMethodNotes: NCI tumour cell line growth inhibition, 48 h
Answer Not met if TGI is under 30 µM, and Met if it is 30 µM or more.

Use these answered entries as a reference point.
[[record]]
molecule = "Cc1ccc2c(=O)cc(-c3sc4ccccc4c3C)[nH]c2n1"
discretelabel = "Met"

[[record]]
molecule = "Nc1nc(N)c2nc(CNc3ccc(C(=O)NC(CCCCNC(=O)c4ccccc4C(=O)O)C(=O)O)cc3)cnc2n1 (stereo unspecified)"
discretelabel = "Met"

[[record]]
molecule = "COC(=O)C1=C(c2ccc3c(c2)OCO3)OC(c2cc(OC)c(OC)c(OC)c2)C1 (stereo unspecified)"
discretelabel = "Met"

[[record]]
molecule = "COc1cccc(-c2nc(-c3cnccn3)n(COCCO)n2)c1"
discretelabel = "Met"


Decide: TGI of Clc1nc(Cl)c2ncn(Cc3ccc(Cn4cnc5c(Cl)nc(Cl)nc54)cc3)c2n1 >= 30 µM?
Not met

Determine whether measured TGI meets or exceeds 30 µM for O=[N+]([O-])c1ccc(Cl)cc1C1SCc2nc3ccccc3n21 (stereo unspecified)
Met

Decide: TGI of COc1cc(C2C(Cl)C(=O)N2NC(=O)c2ccc(NC(C)=O)cc2OC)ccc1O (stereo unspecified) >= 30 µM?
Met

Reported TGI at or above 30 µM? N#Cc1cc(S(=O)(=O)Nc2nc3ccccc3s2)c(SCc2ccccc2)cc1Cl
Met

Item O=C(O)C1=C(C(=O)Nc2ccc(NC(=O)C3=C(C(=O)O)C4C=CC3C4)cc2)C2C=CC1C2 with TGI of 30 µM or above?
Met

Does Cc1cccc2c(N)c3ccccc3nc12 have a reported TGI of at least 30 µM?
Not met

Is reported TGI greater than or equal to 30 µM here: COc1ccc(C(=O)Nc2ccc3oc(-c4ccccc4)nc3c2)cc1
Met

* * *

These records show GI50 for HOP-62 NSCLC.

// below: answered molecules
[[record]]
molecule = "C=CCCCc1ccc(C(O)CCCCCCCCCCCC)o1 (stereo not drawn)"
endpointresult = "16000 nM"

[[record]]
molecule = "Cc1nc(Nc2nc3ccccc3o2)nc(-c2cccc([N+](=O)[O-])c2)c1C(=O)Nc1ccc(F)c(Cl)c1"
endpointresult = "2580 nM"


Form field - read-out: GI50; system: HOP-62 NSCLC; submitted item: CCN(CC)CCSCCCNc1c2ccc(Cl)cc2nc2ccc(OC)cc12
558 nM

* * *

# key: entry, value: log10(TGI)
- System: PC-3 prostate
- testMethodNotes: NCI tumour cell line growth inhibition, 48 h
Log10 applied to TGI; unit prior to transform: µM.

Example cases with answers are listed next.
[[record]]
compound = "COc1ccc2nc(NC(=O)c3cccnc3Nc3cc(OC)c(OC)c(OC)c3)sc2c1"
assayreadout = "log10(TGI)"
endpointresult = 1.37

[[record]]
compound = "Oc1ccc(Cl)cc1CNc1nc2ccccc2[nH]1"
assayreadout = "log10(TGI)"
endpointresult = 1.37

[[record]]
compound = "O=C1c2ccccc2C(=O)c2oc(Br)cc21"
assayreadout = "log10(TGI)"
endpointresult = 1.05

[[record]]
compound = "[Cl][Cd][Cl]"
assayreadout = "log10(TGI)"
endpointresult = 1.37

[[record]]
compound = "CCN(CC)CCOc1ccc(C(=O)/C=C\\c2ccc(Cl)cc2Cl)cc1"
assayreadout = "log10(TGI)"
endpointresult = 1.16

[[record]]
compound = "Cc1c(C)c(S(=O)(=O)N(CCCCCON)OCCCN)c(C)c2c1OC(C)(C)CC2"
assayreadout = "log10(TGI)"
endpointresult = 1.42

[[record]]
compound = "CC1=NN=C(N)NC1=CC(Sc1ccc(Cl)cc1)c1c(O)ccc2ccccc12 (stereo unspecified)"
assayreadout = "log10(TGI)"
endpointresult = 1.73

[[record]]
compound = "Cc1ccc(-c2nc(N3CCCNCC3)c3oc(-c4ccc(C)cc4)nc3n2)cc1"
assayreadout = "log10(TGI)"
endpointresult = 0.46


Which log10(TGI) is listed for Cc1cccc2c(N)c3ccccc3nc12 ?
0.91

May I ask what log10(TGI) has been recorded for COc1cc(Cl)cc(-c2nn(-c3cccc(NC(=O)Nc4ccc(Cl)c(C(F)(F)F)c4)c3)cc2-c2ccncc2)c1 ?
0.33

* * *

Quick reference for TGI among some molecules
- Test system: OVCAR-4 ovarian
- testMethodNotes: NCI tumour cell line growth inhibition, 48 h

Examples with answers:
[[record]]
molecule = "Cc1cc(N(CCC#N)CCC#N)ccc1C=Nc1ccc(C(=O)NN2C(=O)/C(=C/c3ccc(N(CCC#N)CCC#N)cc3)N=C2c2cc([N+](=O)[O-])ccc2Cl)cc1"
assayreadout = "TGI"
endpointresult = "> 100 µM"

[[record]]
molecule = "CCOC(=O)C(=O)C(CCC(=O)c1ccc2ccccc2c1O)C(=O)OCC (stereo not given)"
assayreadout = "TGI"
endpointresult = "> 100 µM"

[[record]]
molecule = "Cc1ccc(S(=O)(=O)c2c(N)n(CCN(C)C)c3nc4ccccc4nc23)cc1"
assayreadout = "TGI"
endpointresult = "> 100 µM"


Field request: TGI | item: Cc1cc(-c2nc3cccc(F)c3s2)ccc1N
> 100 µM

Can you share its TGI? I mean this molecule: Cc1c(C)c(S(=O)(=O)N(CCCCCON)OCCCN)c(C)c2c1OC(C)(C)CC2
21.5 µM

Find the recorded TGI belonging to COc1ccc(C2=CC(c3ccc(OC)c(OC)c3)c3c(c4ccccc4oc3=O)O2)cc1OC (stereo not given) and report it.
> 100 µM

// returns reported TGI for input CCOP(=O)(OCC)/C(C#N)=C/c1ccnc2ccccc12
> 100 µM

Fill in: TGI of O=C(NS(=O)(=O)c1ccccc1)C(Cc1ccccc1)C(Cc1ccccc1)C(=O)NS(=O)(=O)c1ccccc1 (stereo not given) is ___
> 100 µM

// query TGI value for entry CC(=O)O[C@@H](C1C[C@@H](C)[C@H]2[C@@](O)(O1)[C@H](O)[C@@]1(C)C3=CC[C@H]4C(C)(C)[C@@H](OC5OCC(O)C(O)C5O)CC[C@@]45C[C@@]35CC[C@]21C)C(C)(C)O (stereo not given in full)
> 100 µM

Name the recorded TGI for CCc1nc(N)nc(N)c1-c1ccc(Cl)c(N=CN(C)C)c1 .
> 100 µM

* * *

- System: EKVX NSCLC
- testMethodNotes: NCI tumour cell line growth inhibition, 48 h
assayReadout: TGI

Past entries and their recorded results:
[[record]]
compound = "Cc1cc2c(cc1N)C(C)C1(CCC(=O)N2Cc2ccccc2)OCCO1 (stereo not drawn)"
endpointresult = "> 100 µM"

[[record]]
compound = "O=C(CSC1=NNC2(C(=O)N1)c1ccccc1-c1ccccc12)NC(=S)Nc1ccccc1"
endpointresult = "> 10 µM"


Need TGI of S=c1[nH]nc(NNc2ccccc2)n1Nc1ccccc1 , thanks.
> 100 µM

* * *

# maps each entry to its TGI
- Test system: MOLT-4 leukemia
- testMethodNotes: NCI tumour cell line growth inhibition, 48 h

Example entries begin here.
[[record]]
compound = "CN1CC(=O)N(C)c2nc[nH]c2C1=O"
targetentity = "MOLT-4 leukemia"
assayreadout = "TGI"
endpointresult = "> 100 µM"

[[record]]
compound = "CCOP(=O)(OCC)/C(C#N)=C/c1ccnc2ccccc12"
targetentity = "MOLT-4 leukemia"
assayreadout = "TGI"
endpointresult = "> 100 µM"

[[record]]
compound = "CC1(C)O[C@@H](CBr)C[C@H](C[C@H]2C[C@@H](O)C[C@@H](CCOCc3ccccc3)O2)O1"
targetentity = "MOLT-4 leukemia"
assayreadout = "TGI"
endpointresult = "> 100 µM"

[[record]]
compound = "O=C(Nc1ccc(I)cc1F)c1cc(Cl)ccc1O"
targetentity = "MOLT-4 leukemia"
assayreadout = "TGI"
endpointresult = "5.22 µM"

[[record]]
compound = "Cc1ccc2c(=O)cc(-c3sc4ccccc4c3C)[nH]c2n1"
targetentity = "MOLT-4 leukemia"
assayreadout = "TGI"
endpointresult = "69.7 µM"


Given the compound Cc1cc(Cl)ccc1C1OC(=O)c2c1ccc1ccccc21 (stereo unspecified) , what is its reported TGI?
> 100 µM

Need TGI of CCOC(=O)c1c(N2CCCC2)[nH]c(=O)c(C(c2cccs2)c2c(O)c(C(=O)OCC)c(N3CCCC3)[nH]c2=O)c1O , thanks.
> 100 µM

* * *

The following compounds are listed with their measured TGI values.
- Test system: A498 renal
- testMethodNotes: NCI tumour cell line growth inhibition, 48 h

[[record]]
compound = "O=C1c2nc3n(c2C(=O)c2c1nc1n2CCC1)CCC3"
endpointresult = "29.6 µM"

[[record]]
compound = "Cc1cc2c(cc1N)C(C)C1(CCC(=O)N2Cc2ccccc2)OCCO1 (stereo not drawn)"
endpointresult = "> 100 µM"


Next:
Request: TGI, test system A498 renal, entry COc1ccccc1CNC(=O)[C@H](Cc1ccc(O)cn1)NC(C)=O
> 100 µM
